Test: Leishmania major promastigote growth inhibition, primary screen (AID 1063);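 note: promastigotes grown with compound for 44 hours at 28 °C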
Settings: Leishmania major promastigotes, resazurin fluorescence viability; at 10 µM; hits give high values
The whole screen tested about 200,000 compounds, of which about 18,000 (9%) were called active. The list comes from a sample in which actives are over-represented; it also holds close analogues and randomly drawn compounds.
Here, each record is paired with measured inhibition data.
Express the result in % but write the number alone.

Here is how some compounds turned out for inhibition.
CC(C)C(O)C1CCN(Cc2nc(Cc3ccccc3Cl)no2)CC1 (centres undefined)
1.45
Cc1nn(-c2ccccc2)c(Cl)c1C(=O)Nc1ccccc1
1.56
CC1CCC2(CC1)NC(=O)N(Cc1nnc(-c3cccs3)o1)C2=O (centres undefined)
1.95
COc1ccc(OC)c(C(=O)c2ccc(C(=O)N3CCN(Cc4csc(C)n4)CC3)cc2)c1
-0.79
CCN(CC)C(=O)C(=O)Nc1cccc(Br)c1
-4.3
COc1ccc(C2CC(c3cccs3)=NN2C(=O)COC(=O)c2cc3ccccc3cc2O)cc1OC (centres undefined)
58
CC(=O)NC(=S)NNC(=O)c1ccc(Br)cc1
-4.54
CC(=O)c1ccc(NC(=S)N(Cc2ccccc2)C(C)C2CC2)cc1 (centres undefined)
11.1

Requested field: inhibition. Item: CCn1c(COc2c(C)cccc2C)nnc1SCc1nc2ccccc2c(=O)[nH]1 4.15

# repeat for O=C(CSc1ccc(/C=N/NC(=O)c2cccc(F)c2)o1)Nc1ccccc1 -5.63

# repeat for Cc1ccc(/C=C(\C#N)C(=O)Nc2cccc3ncccc23)o1 55.2

# repeat for Cc1ccc(S(=O)(=O)N2CCN(Cc3cccc(C)c3O)CC2)cc1 -1.84

# repeat for CCN(CCCNC(=O)CCn1c(=O)[nH]c2ccsc2c1=O)c1ccccc1 -5.73

# repeat for CCCNC(=O)NC(=O)COC(=O)CC(NC(N)=O)c1ccc(Cl)cc1 (centres undefined) 56.2

# repeat for COc1ccc(-c2csc(NC(=O)CCCc3cccs3)n2)cc1 10.5

# repeat for CCN1CCN(CC(=O)c2cc(OC)c(OC)c(OC)c2)CC1 -5.32

# repeat for O=C(N/N=C/c1ccc([N+](=O)[O-])o1)c1cn(-c2ccccc2)nc1-c1ccc(F)cc1 63.2

# repeat for O=S(=O)(c1ccc(F)cc1)N1CCN(Cc2ccccc2C(F)(F)F)CC1 51.1

# repeat for COCCNC(=O)C(c1ccc(O)cc1)N(C(=O)CCC(=O)Nc1nccs1)c1ccc(C)cc1 (centres undefined) -10.6

# repeat for CN1CCN(c2ccc(NC(=O)COc3ccc(Cl)cc3Cl)cc2)CC1 98.7

# repeat for CCc1nnc(NC(=O)CCCSc2nc3ccccc3[nH]2)s1 12.7

# repeat for O=C(Nc1cccc2ncccc12)C(Cl)(Cl)Cl -0.02

# repeat for CCOC(=O)c1cc(-c2ccc(F)cc2)n(CC(=O)NCc2ccccn2)c1C 3.59

# repeat for CCOC(=O)Cc1ncccc1C(=O)Nc1ccc(OC)cc1 -2.87
